Target: UniProt:P46925
Sequence (P46925 whole entry): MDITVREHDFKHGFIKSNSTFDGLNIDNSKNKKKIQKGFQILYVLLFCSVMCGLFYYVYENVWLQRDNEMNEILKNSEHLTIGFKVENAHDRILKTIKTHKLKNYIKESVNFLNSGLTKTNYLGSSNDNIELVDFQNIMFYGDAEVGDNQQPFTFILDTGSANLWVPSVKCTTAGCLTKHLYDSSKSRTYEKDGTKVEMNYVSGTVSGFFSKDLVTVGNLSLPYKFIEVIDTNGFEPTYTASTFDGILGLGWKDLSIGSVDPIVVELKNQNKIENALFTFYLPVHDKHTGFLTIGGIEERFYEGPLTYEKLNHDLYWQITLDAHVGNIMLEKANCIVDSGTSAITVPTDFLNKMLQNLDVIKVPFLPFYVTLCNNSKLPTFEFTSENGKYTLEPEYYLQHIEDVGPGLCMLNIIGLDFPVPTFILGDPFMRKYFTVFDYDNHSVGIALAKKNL
Experiment: Binding affinity for plasmepsin-2.
pIC50: −log10 of the molar value.

{"columns": ["compound", "target", "pIC50"],
 "data": [
  ["CC(C)[C@H](NC(=O)CC(C)(C)C)C(=O)NC1CCCCNC(=O)CC[C@H](C(=O)NCC(N)=O)NC(=O)[C@H](C(C)C)NC(=O)C[C@H](O)[C@@H](Cc2ccccc2)NC1=O (stereo partly specified)", "UniProt:P46925", 5.82]
]}

---

Test: oral bioavailability in Hamsters
Type: ADME, organism-based
Conditions: cricetinae, in vivo, read-out: Bioavailabiility
Residues, ends and D or L forms follow the SMILES beside them. *: point of attachment. CF3 = FC(F)(F)*; Moc = COC(=O)*
observed_property: bioavailability (%)

{"columns": ["compound", "observed_property", "measured_value"],
 "data": [
  ["COC(=O)N[C@H](C(=O)N1CCC[C@H]1C(=O)N[C@H](C(=O)C(F)(F)F)C(C)C)C(C)C (Moc-Val-Pro-Val-CF3)", "bioavailability", 75]
]}

---

Target: Cathepsin D (Homo sapiens, UniProt P07339)
pKi: −log10 of the molar value.

{"columns": ["compound", "pKi"],
 "data": [
  ["COc1cc(Br)c(OCC(=O)NC(Cc2cccc(Oc3ccccc3)c2)[C@@H](O)CN(CCc2ccc(Cl)cc2Cl)C(=O)CCN2C(=O)c3ccccc3C2=O)cc1OC (stereo partly specified)", 9.15]
]}

---

Molecular target: Cathepsin B (Homo sapiens, UniProt P07858)
Test: Inhibitory activity against cathepsin B.
pIC50: −log10 of the molar value.

{"columns": ["compound", "pIC50"],
 "data": [
  ["Cc1ccc(S(=O)(=O)N2CC(N=[N+]=[N-])CC2C(=O)N[C@H](C=O)Cc2ccccc2)cc1 (stereo partly specified)", "< 5.00"]
]}

---

Assay: Oral absorption in dog
Type: ADME, organism-based, Canis lupus familiaris
Conditions: in vivo, read-out: Absorption

{"columns": ["smiles_str", "Fa, %"],
 "data": [
  ["CC(C)C[C@H](O)[C@H](O)[C@H](CC1CCCCC1)NC(=O)[C@H](Cc1cscn1)NC(=O)[C@H](Cc1ccccc1)CS(=O)(=O)N1CCN(C)CC1", 53]
]}

---

Test: Oral absorption in monkey
Format: ADME
Settings: simiiformes, in vivo, read-out: Absorption
observed_property: Fa (%)

{"columns": ["molecule", "observed_property", "measured_value"],
 "data": [
  ["CC(C)C[C@H](O)[C@H](O)[C@H](CC1CCCCC1)NC(=O)[C@H](Cc1cscn1)NC(=O)[C@H](Cc1ccccc1)CS(=O)(=O)N1CCN(C)CC1 [ZANKIREN]", "Fa", 8]
]}

---

Target: Serine protease 1 (Homo sapiens)
Sequence (P07477 whole entry): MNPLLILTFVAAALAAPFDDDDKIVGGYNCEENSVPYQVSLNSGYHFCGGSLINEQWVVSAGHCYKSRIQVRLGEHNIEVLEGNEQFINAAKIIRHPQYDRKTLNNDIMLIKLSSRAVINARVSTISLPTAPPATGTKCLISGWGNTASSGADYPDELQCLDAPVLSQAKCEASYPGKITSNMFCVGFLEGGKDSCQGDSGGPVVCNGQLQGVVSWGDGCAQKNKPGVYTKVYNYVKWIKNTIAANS
observed_property: Ki (nM)

{"columns": ["molecule", "measured_value"],
 "data": [
  ["CC1=CCN(C(=O)[C@H](Cc2ccc(C(=N)N)cc2)NS(=O)(=O)c2ccc3c(c2)CN(C)CC3)[C@@H](C(=O)O)C1", 0.46],
  ["CC(=N)N1CC[C@H](Oc2ccc([C@H](Cc3ccc4ccc(C(=N)N)cc4c3)C(=O)O)cc2)C1 [DX-9065A]", 620],
  ["NCc1ccc(CNC(=O)CNC(=O)OCc2ccc(COC(=O)NCC(=O)NCc3ccc(CN)cc3)cc2)cc1", 84000]
]}

---

Target: Cathepsin D (Homo sapiens)
Assay: Inhibitory concentration against cathepsin D
Sequence (P07339 65-162 limits assumed): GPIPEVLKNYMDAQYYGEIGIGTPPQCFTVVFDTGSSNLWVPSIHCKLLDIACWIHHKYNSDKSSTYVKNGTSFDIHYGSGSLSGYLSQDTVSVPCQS
Sequence (P07339 169-412 limits assumed): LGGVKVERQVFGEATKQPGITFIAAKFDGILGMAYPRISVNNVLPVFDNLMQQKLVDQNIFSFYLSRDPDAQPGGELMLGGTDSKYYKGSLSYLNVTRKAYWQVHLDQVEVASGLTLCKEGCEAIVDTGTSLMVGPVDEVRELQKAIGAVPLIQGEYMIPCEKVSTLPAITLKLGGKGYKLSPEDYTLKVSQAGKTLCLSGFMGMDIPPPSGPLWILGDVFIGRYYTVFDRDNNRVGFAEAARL
Catalogue of IC50 readings, one per entry.
observed_property: IC50 (µM)

{"columns": ["smiles_str", "unit_of_measure", "measured_value"],
 "data": [
  ["CCCC[C@@H](C(=O)N[C@@H](CC1CCCCC1)[C@@H](O)C[C@H](C(=O)NCCC)C(C)C)N1CCN(C(=O)N2CCN(C)CC2)[C@H](Cc2ccccc2)C1=O", "µM", 0.77],
  ["CCCC[C@@H](C(=O)N[C@@H](CC1CCCCC1)[C@@H](O)C[C@H](C(=O)NCCN(C)C)C(C)C)N1CCN(C(=O)N2CCN(C)CC2)[C@H](Cc2ccccc2)C1=O", "µM", 58]
]}

---

Experiment: Partition coefficient (logP)
Type: physicochemical
Details: octanol/water; read-out: logP

{"columns": ["smiles_str", "logP"],
 "data": [
  ["COc1ccc(CCN(C[C@H](O)[C@H](Cc2ccccc2)NC(=O)COc2cccc(Cl)c2)C(=O)C2CCNCC2)cc1", 3.71]
]}

---

Target: UniProt P07858
Conditions: read-out: Ki app

{"columns": ["smiles_str", "target", "Ki / µM"],
 "data": [
  ["CC(C)C[C@H](NC(=O)OCc1ccccc1)C(=O)NNC(=O)c1csc([C@H](CC(C)C)NC(=O)OCc2ccccc2)n1", "UniProt P07858", 5.2]
]}

---

Assay: Tmax value of the compound
Type: ADME

{"columns": ["molecule", "Tmax, h"],
 "data": [
  ["CC(C)(C)NC(=O)[C@@H]1CN(Cc2cccnc2)CCN1C[C@@H](O)C[C@@H](Cc1ccccc1)C(=O)N[C@H]1c2ccccc2C[C@H]1O.O", 1],
  ["CC(C)c1nc(CN(C)C(=O)N[C@H](C(=O)N[C@@H](Cc2ccccc2)C[C@H](O)[C@H](Cc2ccccc2)NC(=O)OCc2cncs2)C(C)C)cs1 [RITONAVIR]", 2]
]}

---

Recorded IC50 for the following compounds
Target: Renin (Homo sapiens, UniProt P00797)
Sequence (P00797 whole entry): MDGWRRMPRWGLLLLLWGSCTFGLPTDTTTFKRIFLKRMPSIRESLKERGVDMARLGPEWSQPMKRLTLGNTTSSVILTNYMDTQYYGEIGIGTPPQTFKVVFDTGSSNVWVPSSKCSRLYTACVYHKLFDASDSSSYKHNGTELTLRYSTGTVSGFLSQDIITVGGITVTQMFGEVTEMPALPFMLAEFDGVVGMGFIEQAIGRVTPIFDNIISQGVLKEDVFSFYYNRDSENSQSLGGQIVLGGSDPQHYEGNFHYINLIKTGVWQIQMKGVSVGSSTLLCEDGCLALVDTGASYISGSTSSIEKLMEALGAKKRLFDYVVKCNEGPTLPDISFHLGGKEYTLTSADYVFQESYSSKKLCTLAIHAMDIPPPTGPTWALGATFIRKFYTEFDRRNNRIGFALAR

{"columns": ["compound", "target", "IC50, nM"],
 "data": [
  ["COc1ccccc1COCCCOc1ccc(C2CCNCC2OCc2cccc3c2NCCC3)cc1 (configuration not stated)", "Renin (Homo sapiens, UniProt P00797)", 37],
  ["CNC1CCN(C(=O)C[C@@H](Cc2ccccc2)C(=O)N[C@@H](CSC)C(=O)N[C@@H](CC2CCCCC2)[C@@H](O)C(=O)OC(C)C)CC1", "Renin (Homo sapiens, UniProt P00797)", 4]
]}

---

Target: UniProt:P07339
Assay: Binding affinity against cathepsin D.
pKi: −log10 of the molar value.
observed_property: pKi

{"columns": ["molecule", "observed_property", "measured_value"],
 "data": [
  ["CC(C)[C@H](NC(=O)CC(C)(C)C)C(=O)NC1CCCCNC(=O)CC[C@H](C(=O)NCC(N)=O)NC(=O)[C@H](C(C)C)NC(=O)C[C@H](O)[C@@H](Cc2ccccc2)NC1=O (stereo partly specified)", "pKi", 8.85]
]}

---

Test: Inhibitory concentration against several aspartic proteases of Candida albicans
pIC50: −log10 of the molar value.

{"columns": ["smiles_str", "pIC50"],
 "data": [
  ["CCCC[C@@H](C(=O)N[C@@H](CC1CCCCC1)[C@@H](O)C[C@H](C(=O)NCCC)C(C)C)N1CCN(C(=O)N2CCN(C)CC2)[C@H](Cc2ccccc2)C1=O", 8.85]
]}

---

Test: Plasma half life of the compound
Type: ADME, cell-free

{"columns": ["smiles_str", "half-life"],
 "data": [
  ["CC(C)[C@H](NC(=O)c1ccc2ccccc2n1)C(=O)N[C@@H](Cc1ccccc1)[C@H](O)CN1CC[C@@H](OCc2ccncc2)C[C@H]1C(=O)NC(C)(C)C", "42 min"]
]}

---

Test: Oral bioavailability against cynomolgus monkeys at the dose of 3 mg/kg.
Type: ADME, organism-based, Macaca fascicularis
Details: cynomolgus monkey, in vivo

{"columns": ["smiles_str", "bioavailability / %"],
 "data": [
  ["CC(C)C[C@H](O)[C@H](O)[C@H](CC1CCCCC1)NC(=O)[C@@H](CC(=O)N(CC(=O)N(C)CCc1ccccn1)CC1CCCCC1)Cc1csc(N)n1", 40]
]}

---

Experiment: oral bioavailability in standard iv / po dogs
Type: ADME, organism-based, Canis lupus familiaris
Details: dog, in vivo, read-out: Bioavailabiility

{"columns": ["compound", "bioavailability [%]"],
 "data": [
  ["O=C[C@H](CC(=O)O)NC(=O)[C@@H]1CCCN2C(=O)CCC(NC(=O)c3ccccc3)C(=O)N12 (stereo partly specified)", 17]
]}

---

Test: Binding affinity against Thrombin.
pKi: −log10 of the molar value.
observed_property: pKi

{"columns": ["smiles_str", "measured_value"],
 "data": [
  ["N=C(N)c1ccc(CNC(=O)[C@@H]2CCN2C(=O)[C@H](NCC(=O)O)C2CCCCC2)cc1", 8.70]
]}

---

Target: Prothrombin (Homo sapiens, UniProt P00734)
pKi: −log10 of the molar value.

{"columns": ["smiles_str", "pKi"],
 "data": [
  ["N=C(N)N1CCC[C@H](C(=O)NC[C@@H]2CCCN2C(=O)[C@H](CO)NS(=O)(=O)c2ccc3ccccc3c2)C1", 8.44]
]}

---

Please consider the recorded Ki for Procathepsin L (Homo sapiens) in what follows.
observed_property: Ki

{"columns": ["compound", "measured_value"],
 "data": [
  ["CC(C)C[C@H](NC(=O)OCc1ccccc1)C(=O)NCC(=O)CNC(=O)[C@H](CC(C)C)NC(=O)OCc1ccccc1", "340 nM"],
  ["CC(C)C[C@H](C(=O)NCC(=O)CNS(=O)(=O)c1ccc(Oc2ccccc2)cc1)c1cccc(-c2ccccc2)c1", "> 1000 nM"],
  ["CC(C)C[C@H](NC(=O)OCc1ccccc1)C(=O)NC1CCN(S(=O)(=O)c2ccc(Oc3ccccc3)cc2)CC1=O (stereo partly drawn)", "> 1000 nM"]
]}
